# study-system: human GPR40 (Homo sapiens, UniProt O14842)
# Sequence (O14842 whole entry): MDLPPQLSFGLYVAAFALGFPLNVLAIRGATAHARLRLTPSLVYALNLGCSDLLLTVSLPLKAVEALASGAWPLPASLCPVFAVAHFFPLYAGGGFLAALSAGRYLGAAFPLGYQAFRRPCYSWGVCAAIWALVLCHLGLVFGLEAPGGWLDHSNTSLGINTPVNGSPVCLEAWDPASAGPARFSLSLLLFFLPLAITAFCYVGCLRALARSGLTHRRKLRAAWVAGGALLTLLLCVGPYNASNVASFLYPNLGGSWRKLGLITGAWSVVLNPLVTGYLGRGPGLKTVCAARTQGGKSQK
# assay-text: Inositol Phosphate Turnover (IP1) Assay 2
# Assay type: cell-based
# Parameters: expressed in transfected cells
# test-parameters: HEK cells stably expressing human GPR40, Table 2, read-out: Human IP1
Entries annotated with measured pEC50
Scale for pEC50: -log10 of concentration given in mol/L; no unit attached.

{"compound": "COc1ccc(F)c(-c2ccc(C3CCc4ccc(C(C5CCC5)C(C)C(=O)O)cc4O3)cc2)c1 (single isomer, unassigned) [Example 156]", "pEC50": 6.68}
{"compound": "O=C(O)C[C@H](c1ccc2c(c1)OC(c1ccc(-c3cccc(OC4CC4)c3)cc1)CC2)C1CC1 (stereo partly drawn) [Example 78]", "pEC50": 5.77}
{"compound": "COc1ccc(F)c(-c2ccc(C3CCc4ccc([C@H](C5CC5)[C@H](C)C(=O)O)cc4O3)nc2C(F)(F)F)c1 (single isomer, unassigned) [Example 111b]", "pEC50": 7.60}
{"compound": "COc1cc(-c2ccc(C3CCc4ccc([C@@H](CC(=O)O)C5CC5)cc4O3)c(F)c2)c(F)cc1F (mixture of isomers) [Example 95]", "pEC50": 6.66}
{"compound": "COc1ccc(F)c(-c2ccc(C3CCc4ccc(C(C)C(C)C(=O)O)cc4O3)cc2)c1 (single isomer, unassigned) [Example 147c]", "pEC50": 6.86}

Okay, now this compound:
[in] Which pEC50 value belongs to COc1ccc(F)c(-c2ccc(C3CCc4ccc([C@H](C5CC5)[C@H](C)C(=O)O)cc4O3)cc2C(OC)C(C)(C)C)c1 (mixture of isomers) [Example 128] ?
[out] 8.49

The measured values listed here are drawn from patent US9840512B2.
